- Assayed system: T1, human TREM2 (human) (UniProt Q9NZC2)
- T1 sequence (looked up): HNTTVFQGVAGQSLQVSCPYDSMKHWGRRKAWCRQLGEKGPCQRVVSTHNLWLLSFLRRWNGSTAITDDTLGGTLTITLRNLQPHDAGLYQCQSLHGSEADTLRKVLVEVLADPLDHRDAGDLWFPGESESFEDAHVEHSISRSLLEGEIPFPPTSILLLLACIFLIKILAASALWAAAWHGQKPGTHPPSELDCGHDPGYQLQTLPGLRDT
- Experiment description: 2nd screen, 10 nM Ab
Metric: Binding Signal (fold over 6E7 parental antibody)

Binder	Val
6E7 variant V62 (antibody, V domains shown) VH: EVQLVQSGAEVKKPGESLKISCKGSGYSFGSYWIAWVRQMPGKGLEWMGIIYPGDSDTRYAPSFQGQVTISADKSISTAYLQWSSLKASDTAMYFCARQRTFYYDSSGYFDYWGQGTLVTVSS VL: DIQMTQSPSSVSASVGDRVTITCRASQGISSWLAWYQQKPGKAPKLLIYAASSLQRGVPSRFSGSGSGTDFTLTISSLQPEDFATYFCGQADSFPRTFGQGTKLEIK	2.89 fold
